Sourced from PubChem BioAssay AID463173

System: Wild type
assayInfo: S. aureus survival, RN4220 and DeltatarO strains – OD600, teichoic acid synthesis inhibitors, primary screen (AID 463173)
assayContext: S. aureus RN4220 wild type/DeltatarO growth, OD600, 18 h, hits give low values, screened at 18.75 µg/mL (by protocol)
Hit rate of the full screen: of about 52,000 compounds, about 1,700 (3.3%) were called active. The full list was thinned out, with actives kept by preference.

>  <inputSmiles>
CCOC(=O)c1c(C)oc2ncnc(Nc3ccc(OCC)cc3)c12

>  <survival, %>
72

$$$$
>  <inputSmiles>
Cn1ncc2c(N3CCN(c4ccccc4Cl)CC3)ncnc21

>  <survival, %>
127

$$$$
>  <inputSmiles>
CC(=O)c1ccc(NS(=O)(=O)c2ccc3[nH]c4c(c3c2)CCCC4)cc1

>  <survival, %>
84

$$$$
>  <inputSmiles>
Cc1ccc(NC(=O)C2(c3cccs3)CCOCC2)cc1Cl

>  <survival, %>
75

$$$$
>  <inputSmiles>
Cc1ccc(Cl)cc1N1CCN(CCCNC(=O)c2ccc3nc(N4CCCCC4)sc3c2)CC1

>  <survival, %>
45

$$$$
>  <inputSmiles>
Cc1ccc2c(c1)-c1nc(-c3ccc(Cl)cc3)cc(-c3coc4ccccc4c3=O)c1CO2

>  <survival, %>
139

$$$$
>  <inputSmiles>
Cn1c(CNc2cccc(C(F)(F)F)c2)n[nH]c1=S

>  <survival, %>
111

$$$$
>  <inputSmiles>
CCOC(=O)c1c(C)c(-c2ccccc2)n(CC(=O)Nc2ccc(OCC)cc2)c1C

>  <survival, %>
82

$$$$
>  <inputSmiles>
O=C(Nc1c[nH]c2cc(Cl)ccc2c1=O)N1CCCCC1

>  <survival, %>
85

$$$$
>  <inputSmiles>
Cc1ccc(-n2ncc(C(=O)NCc3ccco3)c2C2CCN(C(=O)OC(C)(C)C)CC2)cc1C

>  <survival, %>
72

$$$$
>  <inputSmiles>
CCOC(=O)c1c(Nc2ccc(OC)cc2)nnc(-c2ccccc2)c1-c1ccccc1

>  <survival, %>
5

$$$$
>  <inputSmiles>
Cc1ccc(CNS(=O)(=O)c2ccc3[nH]c4c(c3c2)CCCC4)cc1

>  <survival, %>
82

$$$$
>  <inputSmiles>
CCOc1ccc(NC(=O)CN2CCSc3ccc(S(=O)(=O)N4CCCC4)cc32)cc1

>  <survival, %>
67

$$$$
>  <inputSmiles>
CCOc1ccc(NS(=O)(=O)c2ccc3[nH]cc(C(=O)N4CCCCCC4)c(=O)c3c2)cc1

>  <survival, %>
122

$$$$
>  <inputSmiles>
CCc1c(C)nc2nncn2c1NCc1ccccc1

>  <survival, %>
86

$$$$
>  <inputSmiles>
COc1ccc(NC(=O)N2CCN(S(=O)(=O)c3ccc4c(ccn4C)c3)CC2)c(OC)c1

>  <survival, %>
87

$$$$

====

Tested on: Wild type
assayInfo: S. aureus survival, RN4220 and DeltatarO strains – OD600, teichoic acid synthesis inhibitors, primary screen (AID 463173)
assayContext: S. aureus RN4220 wild type/DeltatarO growth, OD600, 18 h, hits give low values, screened at 18.75 µg/mL (by protocol)
Out of some 52,000 compounds screened, about 1,700 (3.3%) were called active. This is one part of a sample in which actives are shown more often than they occur.
# key: entry, value: survival

>  <inputSmiles>
Cn1nnnc1SCCNCc1ccc(OCc2ccc(Cl)cc2)cc1

>  <survival (%)>
68

$$$$
>  <inputSmiles>
Cc1nc2sc(C(=O)NCc3ccc(Cl)cc3)c(NC(=O)c3ccccc3)c2c(C)c1C

>  <survival (%)>
86

$$$$
>  <inputSmiles>
CCOc1cc(CNCCSc2nnnn2C)cc(Cl)c1OCc1ccc(Cl)cc1

>  <survival (%)>
-2

$$$$
>  <inputSmiles>
CCOc1ccc(NC(=O)c2ccc(-c3nc(COc4ccccc4)c(C)o3)cc2)cc1

>  <survival (%)>
89

$$$$
>  <inputSmiles>
CC1CCN(CC(=O)N2CCCc3c2c(=O)oc2ccc(OCc4ccccc4)cc32)CC1

>  <survival (%)>
86

$$$$
>  <inputSmiles>
COc1ccc(NC(=O)Cn2c(=O)n(-c3ccccc3)c(=O)c3ccc(C(=O)NCc4ccc5c(c4)OCO5)cc32)cc1

>  <survival (%)>
154

$$$$
>  <inputSmiles>
CCOc1ccc(CNCCSc2nnnn2C)cc1OC

>  <survival (%)>
72

$$$$
>  <inputSmiles>
COc1cc(CNCCSc2nnnn2C)ccc1OCc1ccc(Cl)cc1Cl

>  <survival (%)>
0

$$$$
>  <inputSmiles>
COc1cc(CNCCSc2nnnn2C)cc(Cl)c1OCc1ccccc1

>  <survival (%)>
59

$$$$
>  <inputSmiles>
CCC(=O)N1CCc2cc(S(=O)(=O)NCCC(=O)Nc3cc(C)ccc3OC)ccc21

>  <survival (%)>
117

$$$$
>  <inputSmiles>
O=C(CSc1nc2ccccc2o1)NC1CC1

>  <survival (%)>
86

$$$$
>  <inputSmiles>
CCOc1ccc(C(=O)Nc2nnc(SCc3cc(=O)n4ccccc4n3)s2)cc1

>  <survival (%)>
69

$$$$
